experiment: Pharmacokinetics, blood-brain barrier permeability; type: in vivo, C57BL/6 male mice; conditions: male, C57BL/6, mouse, brain/plasma, ip, 20 mg/kg; read-out: Kp (AUCbrain/AUCplasma)
property-label: Kp

{"compound": "C=CC12CN(C)C3CC14c1ccccc1NC4C1CC2C3CO1 (stereo not shown)", "property-label": "Kp", "value": 1.27}

* * *

molecular target: mu opioid receptor (MOR) (Homo sapiens, UniProt P35372); assay: DMR assay in HEK293T-Mu cells (agonist, desensitization, antagonist); details: DMR agonist assay, read-out: EC50 of DMR response
Sequence (P35372 whole entry): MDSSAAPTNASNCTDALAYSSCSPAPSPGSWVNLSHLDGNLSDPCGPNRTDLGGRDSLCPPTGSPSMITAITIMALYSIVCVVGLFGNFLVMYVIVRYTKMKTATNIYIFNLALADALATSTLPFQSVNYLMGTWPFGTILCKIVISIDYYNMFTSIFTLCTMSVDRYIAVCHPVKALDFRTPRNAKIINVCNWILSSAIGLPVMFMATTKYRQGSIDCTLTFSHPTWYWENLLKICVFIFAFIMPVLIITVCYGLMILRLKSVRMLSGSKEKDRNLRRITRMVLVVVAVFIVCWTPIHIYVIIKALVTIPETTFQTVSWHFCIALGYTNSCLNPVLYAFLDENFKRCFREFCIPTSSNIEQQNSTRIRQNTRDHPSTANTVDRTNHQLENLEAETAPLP

{"compound": "C=CC12CN(C)C3CC14c1ccccc1NC4C1CC2C3CO1 (stereo not shown) [DK]", "EC50, µM": 16.3}

* * *

target: M3R (Homo sapiens, UniProt P20309)
Sequence (P20309 whole entry): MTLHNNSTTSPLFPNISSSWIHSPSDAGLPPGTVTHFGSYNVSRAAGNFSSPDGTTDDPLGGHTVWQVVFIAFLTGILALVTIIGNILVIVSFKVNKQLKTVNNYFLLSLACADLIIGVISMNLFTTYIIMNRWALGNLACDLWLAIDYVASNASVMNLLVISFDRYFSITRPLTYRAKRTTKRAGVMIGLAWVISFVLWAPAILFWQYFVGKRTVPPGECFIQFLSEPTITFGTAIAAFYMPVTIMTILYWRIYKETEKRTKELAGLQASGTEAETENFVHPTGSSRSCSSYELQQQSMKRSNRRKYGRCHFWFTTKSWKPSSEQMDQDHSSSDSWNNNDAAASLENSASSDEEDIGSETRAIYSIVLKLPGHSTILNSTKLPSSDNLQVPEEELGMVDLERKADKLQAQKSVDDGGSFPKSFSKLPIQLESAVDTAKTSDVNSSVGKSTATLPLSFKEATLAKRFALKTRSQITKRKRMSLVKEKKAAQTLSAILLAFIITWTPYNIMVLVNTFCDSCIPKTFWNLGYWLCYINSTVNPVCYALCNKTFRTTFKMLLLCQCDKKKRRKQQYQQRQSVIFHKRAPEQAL

{"compound": "C=CC12CN(C)C3CC14c1ccccc1NC4C1CC2C3CO1 (stereo not shown)", "endpoint-unit": "µM", "Ki": 55.2}

* * *

experiment: Pharmacokinetics, blood-brain barrier permeability; assay type: in vivo, C57BL/6 male mice; conditions: male, C57BL/6, mouse, ip; mice; plasma; i.p.; 20 mg/kg (method); read-out: (AUC)0-4 h in plasma

{"compound": "C=CC12CN(C)C3CC14c1ccccc1NC4C1CC2C3CO1 (stereo not shown)", "AUC": "733 ng·h/mL"}

* * *

Assay: Pharmacokinetics, oral bioavailability
Format: in vivo, SD male rats
Conditions: male, SD (Sprague-Dawley), rat, po; rats; plasma; i.g.; 20 mg/kg (method); read-out: (AUC)0-12 h, intragastric administration
Protocol: Oral bioavailability evaluation was as follows. SD male rats (about 250 g) were used in bioavailability evaluation (n = 3). […] were given a single dose of DK (20 mg/kg, 5 mL/kg, […].) through intragastric administration or tail vein injection. […] Brain and plasma drug levels were measured by LC-30AD (Shimadzu Corporation Kyoto, Japan) and SCIEX QTRAP-6500 (AB Sciex, Foster City, CA, USA) and calculated by comparing with internal standard (koumine, 200 ng/mL). […]
property-label: AUC (ng·h/mL)

{"molecule": "C=CC12CN(C)C3CC14c1ccccc1NC4C1CC2C3CO1 (stereo not shown) [DK]", "value": 384}
